Measured values drawn from ChEMBL document CHEMBL1139139 for this set.

biological target: Activated CDC42 kinase 1 (Homo sapiens, UniProt Q07912); assay: Inhibition of Ack1
Sequence (Q07912 whole entry): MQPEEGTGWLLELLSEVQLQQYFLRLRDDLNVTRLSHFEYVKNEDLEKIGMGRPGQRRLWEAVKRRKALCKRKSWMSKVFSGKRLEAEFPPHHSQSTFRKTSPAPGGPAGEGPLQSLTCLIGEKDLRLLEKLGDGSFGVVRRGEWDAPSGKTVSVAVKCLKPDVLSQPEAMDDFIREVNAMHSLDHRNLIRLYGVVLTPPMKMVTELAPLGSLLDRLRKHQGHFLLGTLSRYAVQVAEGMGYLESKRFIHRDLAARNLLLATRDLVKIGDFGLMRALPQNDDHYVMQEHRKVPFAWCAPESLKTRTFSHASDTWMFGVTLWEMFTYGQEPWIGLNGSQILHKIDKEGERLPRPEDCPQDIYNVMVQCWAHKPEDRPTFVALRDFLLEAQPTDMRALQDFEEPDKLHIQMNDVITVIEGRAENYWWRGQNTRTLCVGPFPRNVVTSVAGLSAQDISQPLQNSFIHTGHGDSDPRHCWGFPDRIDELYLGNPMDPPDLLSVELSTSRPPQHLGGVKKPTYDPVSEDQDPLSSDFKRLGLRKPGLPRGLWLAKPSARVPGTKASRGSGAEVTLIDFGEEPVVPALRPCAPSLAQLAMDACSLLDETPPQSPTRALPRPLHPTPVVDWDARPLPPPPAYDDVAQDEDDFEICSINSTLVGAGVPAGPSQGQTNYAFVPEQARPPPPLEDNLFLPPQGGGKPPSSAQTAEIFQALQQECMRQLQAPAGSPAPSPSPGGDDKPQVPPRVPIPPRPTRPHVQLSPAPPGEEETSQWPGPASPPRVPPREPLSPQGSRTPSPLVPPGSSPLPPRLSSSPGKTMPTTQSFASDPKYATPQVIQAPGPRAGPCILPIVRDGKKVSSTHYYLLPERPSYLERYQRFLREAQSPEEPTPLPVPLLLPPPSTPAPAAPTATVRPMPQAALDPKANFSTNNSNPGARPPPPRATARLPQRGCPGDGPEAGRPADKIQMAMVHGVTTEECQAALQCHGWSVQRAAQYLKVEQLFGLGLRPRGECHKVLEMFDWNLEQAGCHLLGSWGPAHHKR
For each of the compounds below, state its pIC50.
Friendly reminder that pIC50 comes from taking -log10 of the concentration in mol/L.

Bench note, Activated CDC42 kinase 1 (Homo sapiens, UniProt Q07912): "CC(C)N(CCOc1ccc(-c2oc3nccc(NCCN4CCNCC4)c3c2-c2ccccc2)cc1)C(C)C" , pIC50 reads 6.74

Bench note, Activated CDC42 kinase 1 (Homo sapiens, UniProt Q07912): "c1ccc(-c2oc3nccc(NCCN4CCNCC4)c3c2-c2ccccc2)cc1" , pIC50 reads 6.38

Bench note, Activated CDC42 kinase 1 (Homo sapiens, UniProt Q07912): "c1ccc(-c2c(-c3ccc(OCCn4ccnc4)cc3)oc3nccc(NCCN4CCNCC4)c23)cc1" , pIC50 reads 7.08

Bench note, Activated CDC42 kinase 1 (Homo sapiens, UniProt Q07912): "c1ccc(-c2oc3nccc(NC[C@@H]4CCCO4)c3c2-c2ccccc2)cc1" , pIC50 reads 6.96

Bench note, Activated CDC42 kinase 1 (Homo sapiens, UniProt Q07912): "c1ccc(-c2c(-c3ccc(OCCN4CCCCC4)cc3)oc3nccc(NCCc4ccncc4)c23)cc1" , pIC50 reads 6.74

Bench note, Activated CDC42 kinase 1 (Homo sapiens, UniProt Q07912): "c1ccc(-c2c(-c3ccc(OCCN4CCCC4)cc3)oc3nccc(NCCN4CCNCC4)c23)cc1" , pIC50 reads 6.77

Bench note, Activated CDC42 kinase 1 (Homo sapiens, UniProt Q07912): "c1ccc(-c2c(-c3ccc(OCCN4CCCCC4)cc3)oc3nccc(NCCc4cccnc4)c23)cc1" , pIC50 reads 7.70

Bench note, Activated CDC42 kinase 1 (Homo sapiens, UniProt Q07912): "c1ccc(-c2c(-c3ccc(OCCN4CCOCC4)cc3)oc3nccc(NCCN4CCNCC4)c23)cc1" , pIC50 reads 6.82

Bench note, Activated CDC42 kinase 1 (Homo sapiens, UniProt Q07912): "c1ccc(-c2c(-c3ccc(OCCN4CCCCC4)cc3)oc3nccc(NCCCn4ccnc4)c23)cc1" , pIC50 reads 6.03

Bench note, Activated CDC42 kinase 1 (Homo sapiens, UniProt Q07912): "c1ccc(-c2c(-c3ccc(OCCN4CCCCC4)cc3)oc3nccc(NCCN4CCNCC4)c23)cc1" , pIC50 reads 6.92

----------
For each of the compounds below, state its IC50.
Target: Tyrosine-protein kinase JAK3 (Homo sapiens, UniProt P52333)
Sequence (P52333 whole entry): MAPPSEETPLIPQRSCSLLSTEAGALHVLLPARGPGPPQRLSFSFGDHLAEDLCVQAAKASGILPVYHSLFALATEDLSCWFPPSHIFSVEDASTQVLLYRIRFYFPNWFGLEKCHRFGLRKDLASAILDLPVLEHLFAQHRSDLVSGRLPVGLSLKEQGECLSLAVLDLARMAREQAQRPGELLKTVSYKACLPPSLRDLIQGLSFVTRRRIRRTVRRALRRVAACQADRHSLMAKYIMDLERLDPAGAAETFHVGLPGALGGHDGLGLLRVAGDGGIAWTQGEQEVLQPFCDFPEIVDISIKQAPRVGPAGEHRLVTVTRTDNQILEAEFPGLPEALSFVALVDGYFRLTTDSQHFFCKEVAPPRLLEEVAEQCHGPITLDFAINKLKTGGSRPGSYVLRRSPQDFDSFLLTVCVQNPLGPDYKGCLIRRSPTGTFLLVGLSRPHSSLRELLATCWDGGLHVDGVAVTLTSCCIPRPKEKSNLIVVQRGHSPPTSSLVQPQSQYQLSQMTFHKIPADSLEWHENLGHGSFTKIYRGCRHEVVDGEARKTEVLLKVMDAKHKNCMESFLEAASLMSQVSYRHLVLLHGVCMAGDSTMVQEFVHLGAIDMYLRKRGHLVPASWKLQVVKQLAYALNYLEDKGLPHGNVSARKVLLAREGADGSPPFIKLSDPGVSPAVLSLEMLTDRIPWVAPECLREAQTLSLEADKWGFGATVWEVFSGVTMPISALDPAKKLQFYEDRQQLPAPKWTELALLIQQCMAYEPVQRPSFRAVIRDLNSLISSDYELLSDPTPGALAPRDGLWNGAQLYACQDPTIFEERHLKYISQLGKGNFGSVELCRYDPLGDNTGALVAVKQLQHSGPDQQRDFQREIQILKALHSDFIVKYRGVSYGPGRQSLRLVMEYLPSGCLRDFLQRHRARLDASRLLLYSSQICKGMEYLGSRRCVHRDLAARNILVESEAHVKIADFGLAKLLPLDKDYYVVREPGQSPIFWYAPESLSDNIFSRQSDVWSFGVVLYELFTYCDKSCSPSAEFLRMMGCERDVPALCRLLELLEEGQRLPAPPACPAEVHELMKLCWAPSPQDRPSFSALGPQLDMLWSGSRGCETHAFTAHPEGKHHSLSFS
Please respond with the number in µM and leave the unit unwritten.

For this compound ( "c1ccc(-c2c(-c3ccc(OCCn4ccnc4)cc3)oc3nccc(NCCN4CCNCC4)c23)cc1" ), measured IC50 is 0.025

For this compound ( "c1ccc(-c2c(-c3ccc(OCCN4CCOCC4)cc3)oc3nccc(NCCN4CCNCC4)c23)cc1" ), measured IC50 is 0.032

For this compound ( "c1ccc(-c2oc3nccc(NC[C@@H]4CCCO4)c3c2-c2ccccc2)cc1" ), measured IC50 is 0.026

For this compound ( "c1ccc(-c2oc3nccc(NCCN4CCNCC4)c3c2-c2ccccc2)cc1" ), measured IC50 is 0.14
